Target: Gox1615 (Gluconobacter oxydans)
Sequence (Q5FQJ0 1-332): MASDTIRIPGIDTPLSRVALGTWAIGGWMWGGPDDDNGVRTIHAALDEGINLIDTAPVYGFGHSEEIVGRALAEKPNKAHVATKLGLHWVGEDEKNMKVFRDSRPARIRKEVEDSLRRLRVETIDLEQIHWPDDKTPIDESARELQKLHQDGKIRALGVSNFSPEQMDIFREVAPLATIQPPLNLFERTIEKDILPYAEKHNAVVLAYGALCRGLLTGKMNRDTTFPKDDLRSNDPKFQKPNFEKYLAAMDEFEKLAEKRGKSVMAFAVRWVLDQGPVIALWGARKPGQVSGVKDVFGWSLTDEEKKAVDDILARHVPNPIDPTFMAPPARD
Experiment: NADPH-dependent α-ketocarbonyl reductase activity assay (rate of decrease of NADPH at 340 nm)
Format: biochemical
Settings: Table 3; 10 mM substrate, 40 mM K-phosphate buffer pH 7.0, 0.05 mM NAD(P)H, 30 °C; U/mg = µmol x min^-1 x mg protein^-1
Collected Gox1615 U/mg* values appear next to each entry.
Response body: numeric value in U/mg, unit text excluded.

compound: CC(=O)C(=O)OCCC(C)C [isoamyl pyruvate]
system.name: Gox1615 (Gluconobacter oxydans)
units.label: U/mg
Gox1615 U/mg*: 4.7
--
compound: CC(=O)C=O [methylglyoxal]
system.name: Gox1615 (Gluconobacter oxydans)
units.label: U/mg
Gox1615 U/mg*: 23.0
--
compound: CCOC(=O)C(C)=O [ethyl pyruvate]
system.name: Gox1615 (Gluconobacter oxydans)
units.label: U/mg
Gox1615 U/mg*: 1.2
--
compound: CCCC(=O)C(C)=O [2,3-hexanedione]
system.name: Gox1615 (Gluconobacter oxydans)
units.label: U/mg
Gox1615 U/mg*: 6.5
--
compound: CCC(=O)C(C)=O [2,3-pentanedione]
system.name: Gox1615 (Gluconobacter oxydans)
units.label: U/mg
Gox1615 U/mg*: 7.0

Incoming: I would be grateful if you could share the reported Gox1615 U/mg* for O=CC(=O)c1ccccc1 [phenylglyoxal] .
Outgoing: 19.1

Incoming: Looking for the measured Gox1615 U/mg* of CC(=O)C(=O)c1ccccc1 [1-phenyl-1,2-propanedione] , can you help?
Outgoing: 5.4

Incoming: Reported Gox1615 U/mg* for CCC(=O)C(=O)CC [3,4-hexanedione] : what is it?
Outgoing: 2.0
